measurement-notes: chemical genetic growth profiling, strain panel (AID 1159580);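 further: tested at 20 µM; growth read once vehicle control cultures reached saturation at 30 °C; 1 = growth at the plate median or of vehicle wells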
condition: S. cerevisiae deletion strains, growth OD, locus YOR136W, strain idh2, hits give low values
About 2,000 (36%) of roughly 5,500 compounds were called active. About 18% were inconclusive and are not listed. The list shows a part of the results.
Simple rule here: normalized growth less than 1 is Condition met, otherwise Condition not met.

Problem: For the compound "CCCn1c(=O)c2[nH]c(C3CCCC3)nc2n(CCC)c1=O" , is normalized growth under 1?
Condition met

Problem: For the compound "NCCCCCC(=O)O" , is normalized growth under 1?
Condition not met

Problem: For the compound C[C@@H]1CC[C@H]2C(C)(C)C3CC12CC[C@@]3(C)O (stereo partly drawn) , is normalized growth under 1?
Condition met

* * *

measurement-notes: chemical genetic growth profiling, strain panel (AID 1159580);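 further: tested at 20 µM; growth read once vehicle control cultures reached saturation at 30 °C; 1 = growth at the plate median or of vehicle wells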
condition: S. cerevisiae deletion strains, growth OD, locus YOR231W, strain MKK1, hits give low values
Out of some 5,500 compounds screened, about 2,000 (36%) were called active. Roughly 18% stayed inconclusive and do not appear here. This is one part of the list.
measured-endpoint: normalized growth
Respond numerically, and do not add a unit to the figure.

Complete the entry with normalized growth for CC(=O)OCC(=O)[C@@]1(O)CCC2C3CCC4=CC(=O)C=CC4(C)C3[C@@H](O)C[C@@]21C (stereo partly drawn)
0.999

Complete the entry with normalized growth for "CC(=O)OC/C=C(\C)CC/C=C(\C)CC/C=C(\C)CC/C=C(\C)CC/C=C(\C)CC/C=C(\C)CC/C=C(\C)CC/C=C(\C)CCC=C(C)C"
1.02

Complete the entry with normalized growth for "Cc1cc(/C=C/c2ccc3cc(N(C)C)ccc3[n+]2C)c(C)n1-c1ccccc1"
1.01

Complete the entry with normalized growth for O=c1[nH]c(=O)n(C2C[C@H](O)[C@@H](CO)O2)cc1C(F)(F)F (stereo partly drawn)
0.992

Complete the entry with normalized growth for CC(C)(C)C1=C(C#N)C(c2c(Cl)cccc2Cl)C(C#N)=C(N)O1 (stereo not drawn)
1.02

Complete the entry with normalized growth for COc1ccc2c(c1)OCC(Cc1ccc(OC)c(O)c1)C2=O (stereo not drawn)
0.998

Complete the entry with normalized growth for NCC[C@@H](O)C(=O)N[C@@H]1C[C@H](N)[C@@H](O[C@H]2O[C@H](CN)[C@@H](O)[C@H](O)[C@H]2O)[C@H](O)[C@H]1O[C@H]1O[C@H](CO)[C@@H](O)[C@H](N)C1O (stereo partly drawn)
1

Complete the entry with normalized growth for "COP(=S)(OC)Oc1ccc([N+](=O)[O-])cc1"
1

* * *

Please respond with reported normalized growth for every item in the list.
measurement-notes: chemical genetic growth profiling, strain panel (AID 1159580);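 further: tested at 20 µM; growth read once vehicle control cultures reached saturation at 30 °C; 1 = growth at the plate median or of vehicle wells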
condition: S. cerevisiae deletion strains, growth OD, locus YDL192W, strain arf1, hits give low values
The campaign covered roughly 5,500 compounds. About 2,000 (36%) were called active. About 18% were inconclusive and are not listed. The list shows a part of the results.
Respond numerically, and do not add a unit to the figure.

Complete the entry with normalized growth for NCC[C@@H](O)C(=O)N[C@@H]1C[C@H](N)[C@@H](O[C@H]2O[C@H](CN)[C@@H](O)[C@H](O)[C@H]2O)[C@H](O)[C@H]1O[C@H]1O[C@H](CO)[C@@H](O)[C@H](N)C1O (some centres undefined)
1.01

Complete the entry with normalized growth for "CC(=O)O[C@]1(C)CC[C@@]23CC1C(C)(C)[C@@H]2CC[C@H]3C"
0.971

Complete the entry with normalized growth for CCN1C[C@@]2(COC)C3[C@@H](OC)[C@H]4[C@@H]1[C@]3(C(OC)C[C@H]2O)C1C[C@@]2(O)[C@H](OC(=O)c3ccccc3)C1[C@]4(OC(C)=O)[C@@H](O)[C@@H]2OC (some centres undefined)
1.03

Complete the entry with normalized growth for "FC(F)(F)c1cccc(N2CCNCC2)c1"
0.995

* * *

measurement-notes: chemical genetic growth profiling, strain panel (AID 1159580);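 further: tested at 20 µM; growth read once vehicle control cultures reached saturation at 30 °C; 1 = growth at the plate median or of vehicle wells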
condition: S. cerevisiae deletion strains, growth OD, locus YNR030W, strain Alg12
Screen size: about 5,500 compounds; about 2,000 (36%) were called active. Another 18% or so got no clear call; they are omitted. No stated cut-off is given here; in the data, active means normalized growth mostly below about 0.91 (no sharp cut-off); inconclusive means no clear call, values can overlap the other calls; inactive means mostly above about 0.92. This is one part of the list.
Respond only with the outcome that fits, drawn from 1 (yes) for active, 0 (no) for inactive

Hi team, can someone confirm the assay call for "N#Cc1cccc(CSC2=NCN(C3CC3)CN2)c1" ?
0 (no)

Hi team, can someone confirm the assay call for "CCc1cccc(C)c1NC(=O)CC(C)(C)CC(=O)O" ?
0 (no)

Hi team, can someone confirm the assay call for Cc1onc(-c2ccccc2Cl)c1C(=O)N1CCCN2C(=O)c3ccccc3C21 (configuration not stated) ?
0 (no)

Hi team, can someone confirm the assay call for O=C1C2C3C=CC(C3)C2C(=O)N1c1ccc(F)c(F)c1 (configuration not stated) ?
0 (no)

Hi team, can someone confirm the assay call for "COc1ccc(-c2nc(-c3ccc(-c4ccccc4)cc3)cs2)cc1" ?
0 (no)

Hi team, can someone confirm the assay call for CCOC(=O)C(c1ccccc1)C(Nc1ccc(Cl)c(Cl)c1)c1ccccn1 (configuration not stated) ?
0 (no)

Hi team, can someone confirm the assay call for "O=C1NC2(CCN(Cc3ccccc3)CC2)Oc2ccccc21" ?
0 (no)

Hi team, can someone confirm the assay call for "O=C1CSCC(=O)N1c1ccc(F)c(Cl)c1" ?
1 (yes)

Hi team, can someone confirm the assay call for "Cc1nn(-c2ccccc2)nc1-c1nnc(-c2ccc(Cl)cc2)o1" ?
0 (no)

Hi team, can someone confirm the assay call for "O=c1oc2ccccc2cc1[N+](=O)[O-]" ?
1 (yes)

Hi team, can someone confirm the assay call for "CCOC(=O)c1ccc(Oc2sccc2[N+](=O)[O-])cc1" ?
1 (yes)

Hi team, can someone confirm the assay call for O=C(Nc1cc(C(F)(F)F)cc(C(F)(F)F)c1)C(c1ccccc1)C1CCCC1 (configuration not stated) ?
0 (no)

Hi team, can someone confirm the assay call for "O/N=C(/CNC(c1ccccc1)(c1ccccc1)c1ccccc1)c1ccccc1" ?
0 (no)

Hi team, can someone confirm the assay call for CC(=O)NC(CCC(=O)O)C(=O)O (configuration not stated) ?
0 (no)

Hi team, can someone confirm the assay call for "O=S(=O)(NCc1ccc(F)cc1F)c1cccc(C(F)(F)F)c1" ?
0 (no)

Hi team, can someone confirm the assay call for "CC(C)(CC(=O)O)CC(=O)Nc1cc(C(F)(F)F)cc(C(F)(F)F)c1" ?
1 (yes)

Hi team, can someone confirm the assay call for "CCOC(=O)c1ccc(Oc2ccc(Cl)cc2Cl)c([N+](=O)[O-])c1" ?
0 (no)

Hi team, can someone confirm the assay call for "Cc1cc(Cl)ccc1Oc1ccc(N)cn1" ?
0 (no)

Hi team, can someone confirm the assay call for "COc1cscc1C(N)=O" ?
0 (no)

Hi team, can someone confirm the assay call for "O=C1NN(c2ccccc2)C(=S)Nc2ccccc21" ?
0 (no)

Hi team, can someone confirm the assay call for "CCN1CN=C(SCc2ccc(Br)cc2)NC1" ?
0 (no)

Hi team, can someone confirm the assay call for "NNC(=O)c1cnn(-c2ccc(Cl)cc2)c1C(F)(F)F" ?
0 (no)

Hi team, can someone confirm the assay call for "FC(F)(F)c1cc(Cl)c2nsnc2c1" ?
0 (no)

Hi team, can someone confirm the assay call for "NC(=O)N[C@@H]1O[C@H](CO)[C@@H](O)[C@H](O)[C@H]1O" ?
0 (no)

Hi team, can someone confirm the assay call for "O=C(CN1CCOCC1)Nc1cc(C(F)(F)F)cc(C(F)(F)F)c1" ?
0 (no)

Hi team, can someone confirm the assay call for "NC(N)=NC(N)=Nc1ccccc1C(F)(F)F" ?
0 (no)

Hi team, can someone confirm the assay call for "O=C1CCc2cccc3cccc1c23" ?
0 (no)

Hi team, can someone confirm the assay call for "CCOC(=O)CNc1ccc(Cl)c(Cl)c1" ?
0 (no)

Hi team, can someone confirm the assay call for "N/C(=N/OC(=O)Nc1ccccc1)c1ccc(C2SCCS2)cc1" ?
1 (yes)

Hi team, can someone confirm the assay call for "CN(C)c1ccc(-c2n[nH]c(=O)c3ccccc23)cc1[N+](=O)[O-]" ?
0 (no)

Hi team, can someone confirm the assay call for "O=S(=O)(NCc1ccc2c(c1)OCO2)c1ccc(F)c(Cl)c1" ?
0 (no)

Hi team, can someone confirm the assay call for "Cc1nn(Cc2ccccc2Cl)c(=N)s1" ?
0 (no)

Hi team, can someone confirm the assay call for "CC(=O)c1ccc(N2C(=O)CSCC2=O)cc1" ?
0 (no)

Hi team, can someone confirm the assay call for "Cn1c(=S)[nH]c2cc(C(F)(F)F)ccc21" ?
0 (no)

Hi team, can someone confirm the assay call for "FC(F)(F)c1ccc2[nH]c(=S)[nH]c2c1" ?
0 (no)

Hi team, can someone confirm the assay call for "CCOC(=O)c1cnn(-c2ccc(F)cc2)c1N" ?
0 (no)

Hi team, can someone confirm the assay call for "Nc1ccc(Oc2ccc(Cl)cc2C2CCCCC2)nc1" ?
1 (yes)

Hi team, can someone confirm the assay call for "Clc1ccc(Oc2ccnc3cc(Cl)ccc23)cc1" ?
1 (yes)

Hi team, can someone confirm the assay call for "Cc1cc2c3c(c1)c(O)cc(=O)n3CCC2" ?
0 (no)

Hi team, can someone confirm the assay call for "COc1ccc(C(=O)c2sc(Nc3ccccc3)nc2-c2ccccc2)cc1" ?
0 (no)

Hi team, can someone confirm the assay call for "Cc1c(C)c(C)c(CSc2nc3ccccc3[nH]2)c(C)c1C" ?
0 (no)

Hi team, can someone confirm the assay call for "Brc1cccc(C=NCc2ccccc2)c1" ?
1 (yes)
